Test system: NCI/ADR-RES ovarian
Assay Details: NCI-60 one-dose screen, 48 h
Experimental Setup: 10 µM
Compounds without any hit were thinned out: in the full panel of roughly 83,000, 20% have a hit. The source made the active and inactive calls. Rule for the calls: active = growth percent below 10; inactive = the rest.
// allowed return values: active, inactive

Record excerpt, results attached:
> print(dat)
                         chemical.structure  class.label
1  CCOc1ccc(Nc2nc3ccccc3nc2Nc2ccc(OCC)cc2)cc1     inactive
2  COc1ccc2nc(Cl)c(-c3cc(-c4ccccc4)nc(N)n3)cc2c1       active
3  C/C(=N\N=C\c1ccc(Cl)c([N+](=O)[O-])c1)c1ccc2c(c1)Nc1ccccc1S2     inactive

Enquiry: Recorded test outcome, item Brc1ccc(N/N=C/c2c[nH]c3ccccc23)nc1
Return: active
